# experimental-target: UniProtKB P49327
# Sequence (P49327 whole entry, the tested form may be a part): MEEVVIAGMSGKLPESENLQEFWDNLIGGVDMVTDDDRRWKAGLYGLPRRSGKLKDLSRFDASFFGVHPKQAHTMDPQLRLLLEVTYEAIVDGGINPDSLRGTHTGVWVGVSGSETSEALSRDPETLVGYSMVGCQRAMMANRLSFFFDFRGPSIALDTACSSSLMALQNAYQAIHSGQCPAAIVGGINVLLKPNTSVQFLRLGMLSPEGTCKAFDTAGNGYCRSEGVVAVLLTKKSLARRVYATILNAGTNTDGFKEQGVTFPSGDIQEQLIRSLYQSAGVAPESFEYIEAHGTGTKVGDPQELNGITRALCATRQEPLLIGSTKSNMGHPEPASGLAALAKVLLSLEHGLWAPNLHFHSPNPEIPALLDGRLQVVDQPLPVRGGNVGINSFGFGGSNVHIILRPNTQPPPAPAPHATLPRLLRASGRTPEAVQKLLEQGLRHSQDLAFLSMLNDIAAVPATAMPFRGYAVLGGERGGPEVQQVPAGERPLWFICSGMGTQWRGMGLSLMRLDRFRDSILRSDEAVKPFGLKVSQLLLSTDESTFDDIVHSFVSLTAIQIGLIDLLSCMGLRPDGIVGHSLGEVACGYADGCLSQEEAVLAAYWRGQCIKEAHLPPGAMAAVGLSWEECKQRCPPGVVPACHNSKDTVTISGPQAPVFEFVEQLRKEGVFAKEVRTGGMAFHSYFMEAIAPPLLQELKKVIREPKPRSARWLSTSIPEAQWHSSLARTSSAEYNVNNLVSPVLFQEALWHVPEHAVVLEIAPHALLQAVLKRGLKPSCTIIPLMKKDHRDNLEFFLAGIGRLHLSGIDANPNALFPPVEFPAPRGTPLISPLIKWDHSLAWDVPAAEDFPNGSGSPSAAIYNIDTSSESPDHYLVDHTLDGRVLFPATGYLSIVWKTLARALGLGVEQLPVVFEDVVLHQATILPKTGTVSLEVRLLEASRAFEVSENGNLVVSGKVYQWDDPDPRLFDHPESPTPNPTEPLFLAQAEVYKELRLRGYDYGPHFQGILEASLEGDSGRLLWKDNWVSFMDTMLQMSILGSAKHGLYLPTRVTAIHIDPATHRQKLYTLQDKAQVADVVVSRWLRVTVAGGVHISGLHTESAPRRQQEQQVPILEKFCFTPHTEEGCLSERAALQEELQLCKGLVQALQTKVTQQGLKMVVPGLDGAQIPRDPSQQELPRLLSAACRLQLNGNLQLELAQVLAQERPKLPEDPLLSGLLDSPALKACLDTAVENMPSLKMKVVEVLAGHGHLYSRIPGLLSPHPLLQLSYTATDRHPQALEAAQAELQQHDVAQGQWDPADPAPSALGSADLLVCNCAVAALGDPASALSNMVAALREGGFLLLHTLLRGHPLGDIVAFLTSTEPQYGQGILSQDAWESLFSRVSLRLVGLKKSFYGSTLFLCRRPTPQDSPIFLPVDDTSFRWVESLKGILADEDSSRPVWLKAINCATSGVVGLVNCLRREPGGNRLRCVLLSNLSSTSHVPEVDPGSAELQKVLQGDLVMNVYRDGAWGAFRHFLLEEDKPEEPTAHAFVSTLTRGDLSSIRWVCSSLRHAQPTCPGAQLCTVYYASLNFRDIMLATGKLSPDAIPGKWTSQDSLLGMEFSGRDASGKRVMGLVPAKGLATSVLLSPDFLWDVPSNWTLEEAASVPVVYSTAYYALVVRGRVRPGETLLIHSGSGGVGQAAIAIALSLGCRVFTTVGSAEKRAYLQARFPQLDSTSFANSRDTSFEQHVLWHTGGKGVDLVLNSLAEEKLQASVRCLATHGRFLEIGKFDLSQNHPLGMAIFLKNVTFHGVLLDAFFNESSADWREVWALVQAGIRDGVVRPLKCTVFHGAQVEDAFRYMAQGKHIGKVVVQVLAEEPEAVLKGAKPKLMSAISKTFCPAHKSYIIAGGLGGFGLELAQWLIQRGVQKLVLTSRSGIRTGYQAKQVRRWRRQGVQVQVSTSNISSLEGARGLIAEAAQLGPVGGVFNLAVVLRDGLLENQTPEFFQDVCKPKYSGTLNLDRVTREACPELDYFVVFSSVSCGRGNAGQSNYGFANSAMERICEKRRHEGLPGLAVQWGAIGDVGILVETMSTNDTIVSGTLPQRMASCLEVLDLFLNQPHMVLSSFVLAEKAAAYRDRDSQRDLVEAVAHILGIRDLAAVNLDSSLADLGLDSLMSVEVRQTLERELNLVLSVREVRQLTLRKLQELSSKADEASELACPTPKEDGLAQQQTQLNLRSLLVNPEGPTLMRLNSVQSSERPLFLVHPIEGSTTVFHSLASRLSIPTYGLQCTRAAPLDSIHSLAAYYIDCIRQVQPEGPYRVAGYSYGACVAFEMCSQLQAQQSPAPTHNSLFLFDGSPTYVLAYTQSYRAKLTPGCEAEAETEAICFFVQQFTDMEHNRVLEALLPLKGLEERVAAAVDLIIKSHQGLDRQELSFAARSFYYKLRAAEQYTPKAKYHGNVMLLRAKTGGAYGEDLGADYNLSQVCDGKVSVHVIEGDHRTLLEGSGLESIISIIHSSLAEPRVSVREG
# measurement-protocol: FAS thioesterase domain inhibitors, dose response, biochemical, kinetic fluorescence intensity (AID 624326);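 further: rate of fluorescence rise from hydrolysis of a fluorogenic O-methyl fluorescein ester substrate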
# Format: functional
Activity calls are given as the source filed them.
Would you mind telling me the reported IC50 of each entry?

Known IC50 results, listed for orientation:
CCn1cc(C(=O)NCc2ccco2)c(=O)c2cc(S(=O)(=O)N3CC(C)CC(C)C3)ccc21 (stereo not given) : 4.14 µM (active)
CCn1cc(C(=O)NCCC2=CCCCC2)c(=O)c2cc(S(=O)(=O)N(C)C)ccc21 : 2.74 µM (active)
O=C(Nc1ccc(Cc2ccncc2)cc1)c1cc([N+](=O)[O-])ccc1N1CCOCC1 : 1.24 µM (active)
O=C(C[C@H]1C[C@H](C(=O)N2CCOCC2)[C@@]2(CCC3CCCC3)c3[nH]c4cc(-c5ccco5)ccc4c3CCN2C1=O)NCCc1ccccn1 : 7.01 µM (active)

Turning now to a further molecule:
Qu. Consider the molecule CC(C)(C)N(Cc1ccccc1)C(=O)COC(=O)c1ccc([N+](=O)[O-])o1 and give its recorded IC50.
Ans. 12.2 µM (active)

====

Would you mind telling me the reported EC50 of each entry?
# experimental-target: Zinc finger protein mex-5 (Caenorhabditis elegans, UniProt Q9XUB2)
# Sequence (Q9XUB2 whole entry): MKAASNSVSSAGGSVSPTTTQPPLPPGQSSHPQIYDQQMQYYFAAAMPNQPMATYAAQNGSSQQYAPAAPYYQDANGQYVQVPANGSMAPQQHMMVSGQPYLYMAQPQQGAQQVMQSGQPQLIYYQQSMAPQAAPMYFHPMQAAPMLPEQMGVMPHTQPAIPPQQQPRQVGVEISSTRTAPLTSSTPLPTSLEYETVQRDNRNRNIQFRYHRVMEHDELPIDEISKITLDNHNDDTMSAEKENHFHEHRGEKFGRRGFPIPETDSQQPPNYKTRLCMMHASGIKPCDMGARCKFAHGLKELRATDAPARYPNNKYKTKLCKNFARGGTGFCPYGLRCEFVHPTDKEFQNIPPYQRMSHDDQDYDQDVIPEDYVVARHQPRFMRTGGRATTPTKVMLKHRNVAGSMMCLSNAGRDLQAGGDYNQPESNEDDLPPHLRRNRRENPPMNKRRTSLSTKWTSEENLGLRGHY
# measurement-protocol: MEX-5/TCR-2 RNA interaction inhibitors, dose response, biochemical, C. elegans, fluorescence polarization (AID 1960)
Activity calls are given as the source filed them.

Known EC50 results, listed for orientation:
O=C(COC(=O)C1CCCC1)Nc1ncc(Cl)cc1Cl : 34.3 µM (active)
Cc1ccccc1NC(=O)CN1C(=O)S/C(=C\c2cccn2-c2cccc(C(=O)O)c2)C1=O : > 300 µM (not active)
Cc1cccc(C)c1NC(=O)CN1C(=O)S/C(=C\c2cccn2-c2cccc(C(=O)O)c2)C1=O : 60 µM (active)
O=C(NNc1ccccn1)C(=O)NNS(=O)(=O)c1ccc(F)cc1 : > 300 µM (inconclusive)

Provide the reported EC50 of each entry below, same order.
1. O=C(Nc1ccnn1C1CCN(CC2CC=CCC2)CC1)c1ccccc1 (configuration not stated)
2. CC1=NOC(=O)/C1=C\c1ccc2c(c1)OCO2
3. CC(=O)Oc1cc2cccc(OC(C)=O)c(=O)c2c(OC(C)=O)c1OC(C)=O
4. Nc1c(C(=O)Nc2nc3ccccc3s2)sc2nc(-c3cccs3)ccc12
5. Cc1sc(-c2ccccn2)nc1OC(=O)c1cccc(Cl)c1Cl

Ans.
1: 52.3 µM (active); 2: > 300 µM (not active); 3: 2.01 µM (active); 4: > 150 µM (inconclusive); 5: > 300 µM (not active)

Provide the reported EC50 of each entry below, same order.
1. COCCN1CCC(CNCc2c(C(=O)N3CCCCC3)nc3c(C)cccn23)C1 (configuration not stated)
2. COc1ccc2c(c1)c1nc3ccccc3nc1n2CCn1c(=O)oc2ccccc21

Ans.
1. > 300 µM (not active)
2. > 300 µM (inconclusive)

Qu. Consider the molecule CN1CCc2cccc3c2[C@H]1Cc1ccc(O)c(O)c1-3 and give its recorded EC50.
Ans. 3.29 µM (active)

====

# Test system: INS1
# measurement-protocol: beta cell apoptosis inhibitors, cytokine rescue, dose response, luminescence, retest (AID 449756);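 further: cell death triggered by IL-1 beta plus TNF-alpha plus IFN-gamma mixture; protective hits raise ATP signal compared with cytokine alone wells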
# Type: functional, cell-based
# condition: Rattus norvegicus
Active and inactive are the calls of the source.
measure: AC50

Known AC50 results, listed for orientation:
O=C(NC(=S)NNC(=O)c1cnccn1)c1ccc(F)cc1 : 0.889 µM (active)
COc1ccc(C[C@H]2CN3C(=NC[C@@H]3Cc3ccccc3)N2CCNC(=O)CCC2CCCCC2)cc1 : 5.74 µM (active)

Provide the reported AC50 of each entry below, same order.
1. COc1ccc(/C(C)=N/NC(=O)c2cccc(S(=O)(=O)N3CCCC3)c2)c(O)c1
2. Cc1cc(-c2ccccc2)n(-c2cc(N/N=C/c3ccccc3O)ncn2)n1
3. COc1ccc(C2/C=C\CN(C(=O)c3ccc(C)cc3)[C@H](Cc3ccccc3)C(=O)N2Cc2ccc(F)cc2)cc1 (some centres not stated)
4. COc1cc(C(=O)N/N=C(\c2ccccc2)c2ccccn2)cc(OC)c1OC
5. COc1cnc(-c2ccccn2)nc1NC(C)C

Ans.
1. 0.631 µM (active)
2. 4.06 µM (active)
3. 7.14 µM (active)
4. 0.499 µM (active)
5. 7.93 µM (active)

====

# experimental-target: Ubiquitin-conjugating enzyme E2 N (Homo sapiens, UniProt P61088)
# Sequence (P61088 whole entry): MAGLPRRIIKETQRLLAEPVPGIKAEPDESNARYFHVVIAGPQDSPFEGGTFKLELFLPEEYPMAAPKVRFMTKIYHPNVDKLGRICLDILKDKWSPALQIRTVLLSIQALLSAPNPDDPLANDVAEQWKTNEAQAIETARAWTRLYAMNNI
# Assay type: functional
Calls of active or inactive are those of the source.
Would you mind answering with one of these outcomes? t for active, f for inactive

C#CCOCCOCCOCCNc1nc(N2CCN(C(=O)[C@H](CCCCN)n3cc(CN)nn3)CC2)nc(N2CCN(C(=O)[C@H](CCCCN)n3cc(CN)nn3)CC2)n1 : t
Cc1cc(C)c2sc(N(CCCN(C)C)C(=O)c3ccc(S(=O)(=O)N(C)C4CCCCC4)cc3)nc2c1 : t
Cc1nc2ccccc2n1C1CCN(CC(=O)Nc2ccccc2Br)CC1 [ASN06356088] : f

Now for a further molecule.
Qu. Assay result, entry CCCc1nnc(NC(=O)c2nc(S(=O)(=O)Cc3cccc(C)c3)ncc2Cl)s1 — outcome?
Ans. f

====

Hi! I'm sharing some AC50 results obtained with Cytochrome P450 3A4 (Homo sapiens).
Sequence (P08684 whole entry): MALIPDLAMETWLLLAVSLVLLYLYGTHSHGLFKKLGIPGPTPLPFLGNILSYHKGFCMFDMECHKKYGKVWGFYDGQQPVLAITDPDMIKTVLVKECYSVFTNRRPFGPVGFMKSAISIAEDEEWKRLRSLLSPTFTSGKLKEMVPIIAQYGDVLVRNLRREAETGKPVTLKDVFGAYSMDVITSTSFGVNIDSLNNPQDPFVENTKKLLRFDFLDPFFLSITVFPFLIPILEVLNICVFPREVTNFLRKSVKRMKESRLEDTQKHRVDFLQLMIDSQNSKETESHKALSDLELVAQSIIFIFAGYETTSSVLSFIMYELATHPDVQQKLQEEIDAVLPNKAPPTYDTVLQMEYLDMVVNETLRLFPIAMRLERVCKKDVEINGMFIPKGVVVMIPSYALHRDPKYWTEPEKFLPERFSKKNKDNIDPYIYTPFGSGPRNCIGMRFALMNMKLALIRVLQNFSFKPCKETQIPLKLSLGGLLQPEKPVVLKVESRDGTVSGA

Known AC50 results, listed for orientation:
C[C@@H](O)CC(C)(C)N.Oc1c(Cl)c(Cl)c(Cl)c(Cl)c1Cl : inconclusive
O=C(c1ccc2c(c1)OCCO2)C1CCN(S(=O)(=O)c2ccccc2F)CC1 : inconclusive
O=C(Nc1cccc(F)c1)N1CC2(CCN(C(=O)Oc3ccccc3)CC2)C1 : inconclusive
O=C(c1cccc(F)c1)N1CCC2(CC1)CCN(c1ncccn1)CC2 : inconclusive
FC(F)(F)c1ccccc1-c1cc(NCc2ccccc2)ncn1 : inconclusive

Qu. Consider the compound NCCc1c[nH]c2ccccc12 and give its recorded AC50.
Ans. inconclusive

====

Hi! I'm sharing some AC50 results obtained with Cytochrome P450 2C9 (Homo sapiens).
Sequence (P11712 whole entry): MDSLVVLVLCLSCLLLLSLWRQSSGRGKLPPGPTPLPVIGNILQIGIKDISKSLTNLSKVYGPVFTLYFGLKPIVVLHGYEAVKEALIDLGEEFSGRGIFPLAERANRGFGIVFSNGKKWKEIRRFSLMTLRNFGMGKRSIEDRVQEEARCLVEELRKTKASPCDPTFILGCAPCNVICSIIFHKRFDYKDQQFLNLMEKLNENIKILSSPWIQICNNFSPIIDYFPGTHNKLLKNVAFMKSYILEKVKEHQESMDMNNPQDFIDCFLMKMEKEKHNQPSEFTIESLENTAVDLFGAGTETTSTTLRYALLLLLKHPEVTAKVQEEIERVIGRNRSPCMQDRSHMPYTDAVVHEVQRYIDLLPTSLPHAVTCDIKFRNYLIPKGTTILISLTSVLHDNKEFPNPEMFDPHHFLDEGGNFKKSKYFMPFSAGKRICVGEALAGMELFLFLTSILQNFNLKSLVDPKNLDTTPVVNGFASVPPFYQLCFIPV

O=C1CCN(S(=O)(=O)c2ccccc2)N1 : 12.6 µM (inconclusive)

Provide the reported AC50 of each entry below, same order.
1. Cn1c(N/N=C/c2c[nH]c3ccccc23)nc2ccccc21
2. N#CCCn1cc(/C=N/O)c(-c2ccc(Cl)cc2)n1

Ans.
["28.2 µM (inconclusive)", "15.8 µM (inconclusive)"]

Provide the reported AC50 of each entry below, same order.
1. O=C(CCNS(=O)(=O)c1ccc2c(c1)CCC(=O)N2)NCc1ccc2c(c1)OCO2
2. COc1cccc(N2CCN(C(=O)Nc3ccc4c(c3)NC(=O)CO4)CC2)c1
3. O=C(Nc1ccc(N2CCCCC2)cc1)c1cncc(Br)c1
4. COc1ccc2nc(O)c(CN(CCc3ccccc3)C(C)=O)cc2c1
5. COc1ccc(-c2nc3cnc(Oc4ccccc4)nc3n(Cc3cccs3)c2=O)cc1
6. COC(=O)c1cc(OC)c(OC)cc1NC(=O)CSc1ccccc1
7. COc1ccc(C2CC(C(F)(F)F)n3nc(C(=O)N(C)Cc4cn(C)nc4C)c(Cl)c3N2)cc1 (stereo not drawn)
8. CCCCn1c(SC(C)C(N)=O)nc2cc(C(=O)OC)ccc2c1=O (stereo not drawn)

Ans.
["39.8 µM (inconclusive)", "12.6 µM (inconclusive)", "14.1 µM (inconclusive)", "14.1 µM (inconclusive)", "1.26 µM (inconclusive)", "20 µM (inconclusive)", "17.8 µM (inconclusive)", "8.91 µM (inconclusive)"]

Provide the reported AC50 of each entry below, same order.
1. O=C(c1ccc(-c2nnc(Nc3ccccc3)c3ccccc23)cc1)N1C[C@H]2C[C@H](C1)c1cccc(=O)n1C2
2. C/C(CC(=O)NCc1ccco1)=N\NC(=O)Cc1ccc(Cl)cc1

Ans.
2 µM (inconclusive)
25.1 µM (inconclusive)

Provide the reported AC50 of each entry below, same order.
1. Cn1c(SC2=CS(=O)(=O)c3ccccc32)nc2ccccc21
2. N#C/C(=C\NC(=S)c1ccncc1)c1nc2ccccc2s1
3. COc1ccc(S(=O)(=O)N(CC(=O)NCC2CCCO2)c2ccc(F)cc2)cc1OC (stereo not drawn)
4. COc1ccc(CN2CN=C(Nc3nc4ccccc4s3)NC2)cc1
5. COCCCn1c(=S)[nH]c2ncccc2c1=O
6. COCCn1c(=O)c(-c2ccc(F)cc2)nc2cnc(OCc3ccccc3)nc21

Ans.
1. 28.2 µM (inconclusive)
2. 6.31 µM (inconclusive)
3. 10 µM (inconclusive)
4. 20 µM (inconclusive)
5. 0.00562 µM (inconclusive)
6. 20 µM (inconclusive)

====

# experimental-target: Corticotropin-releasing factor receptor 2/Corticotropin-releasing factor-binding protein (Homo sapiens, UniProt P24387+Q13324)
# Sequence (Q13324 whole entry): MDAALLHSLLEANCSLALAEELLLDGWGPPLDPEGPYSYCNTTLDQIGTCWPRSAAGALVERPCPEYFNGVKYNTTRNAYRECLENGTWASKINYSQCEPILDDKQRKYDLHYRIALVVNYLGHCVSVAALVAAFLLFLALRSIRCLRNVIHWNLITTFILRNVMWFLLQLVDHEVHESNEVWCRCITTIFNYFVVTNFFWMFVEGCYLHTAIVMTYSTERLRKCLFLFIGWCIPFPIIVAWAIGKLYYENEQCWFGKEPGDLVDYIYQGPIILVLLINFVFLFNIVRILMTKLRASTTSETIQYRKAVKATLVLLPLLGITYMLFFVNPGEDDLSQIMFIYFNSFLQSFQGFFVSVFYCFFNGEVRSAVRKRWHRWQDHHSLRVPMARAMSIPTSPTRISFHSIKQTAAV
# Sequence (P24387 whole entry): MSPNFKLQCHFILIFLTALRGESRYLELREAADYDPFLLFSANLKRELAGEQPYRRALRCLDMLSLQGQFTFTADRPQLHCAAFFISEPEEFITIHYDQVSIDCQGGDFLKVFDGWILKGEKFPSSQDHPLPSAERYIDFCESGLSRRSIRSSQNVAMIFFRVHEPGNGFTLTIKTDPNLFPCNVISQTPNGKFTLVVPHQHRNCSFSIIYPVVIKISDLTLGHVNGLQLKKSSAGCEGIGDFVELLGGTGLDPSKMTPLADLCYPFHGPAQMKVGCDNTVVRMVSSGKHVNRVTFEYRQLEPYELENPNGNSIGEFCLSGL
# measurement-protocol: Dose Response confirmation of uHTS hits for small molecule antagonists of the CRF-binding protein and CRF-R2 receptor complex.
# Assay type: functional
# condition: read-out: IC50_Mean
Active and inactive are the calls of the source.
Would you mind answering with one of these outcomes? 1.0 for active, 0.0 for inactive

Worked examples, 3 compounds total:
CCN(CC)C(=O)CSc1ncnc2c1nnn2-c1ccc(OC)cc1 : 0.0
CCOC(=O)C1=NN(c2ccccc2)C2=NC(C)=C(C(=O)OC)C(c3cccs3)N12 (stereo not given) : 0.0
O=C(c1cc2nc(-c3ccc(F)cc3)cc(C(F)(F)F)n2n1)N1CCOCC1 : 0.0

Qu. Assay result, entry O=[N+]([O-])c1cccnc1Sc1ccc(Cl)cc1 — outcome?
Ans. 1.0

Qu. Assay result, entry Cc1ccccc1Nc1nc(N)nc(COC(=O)c2cccc(S(=O)(=O)N(C)c3ccccc3)c2)n1 — outcome?
Ans. 0.0
